system-under-test: Δnucleolin (Homo sapiens, UniProt P19338 284-710, del1-283)
Sequence (P19338 284-710, stated change not applied): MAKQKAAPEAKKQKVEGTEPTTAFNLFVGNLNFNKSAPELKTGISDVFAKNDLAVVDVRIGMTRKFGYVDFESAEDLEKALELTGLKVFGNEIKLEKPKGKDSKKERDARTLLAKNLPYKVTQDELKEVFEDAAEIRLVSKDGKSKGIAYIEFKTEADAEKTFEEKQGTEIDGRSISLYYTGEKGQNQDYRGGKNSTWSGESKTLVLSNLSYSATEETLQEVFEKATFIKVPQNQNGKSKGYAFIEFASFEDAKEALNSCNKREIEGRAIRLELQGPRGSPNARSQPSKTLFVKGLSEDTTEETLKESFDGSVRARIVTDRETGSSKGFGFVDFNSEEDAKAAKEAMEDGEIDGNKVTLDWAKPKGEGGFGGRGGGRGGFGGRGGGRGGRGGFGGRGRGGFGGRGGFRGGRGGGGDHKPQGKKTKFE
experiment-description: SPR; SPR: 25 °C, 1:10 mixture of binding buffer (10 mM Tris-HCl pH 7.5, 150 mM KCl) and HBS-EP (10 mM HEPES pH 7.4, 150 mM NaCl, 3 mM EDTA, 0.005% P20), protein immobilized; pull-down: RNA on streptavidin beads blocked in 10 mM Tris-HCl pH 7.5, 100 mM KCl, 0.1 mM EDTA, 1 mM DTT, 0.01% Triton X-100, BSA, tRNA; extract 1 h at 30 °C, elution 400-2600 mM KCl
experimental-conditions: protein: recombinant; tags: N-terminal His-tag (pET28a); label: biotin; parallel G4 (CD, UV melting)
experimental-endpoint: pKd
Value format note: pKd is -log10 of concentration (mol/L); just state the number.

Query: Look at this binder and give its reported pKd. AACGAGGGAGGGAGGGAGAGGGAGAGA (structured_RNA, 3' biotin) [MMP16 GQ]
Reply: 8.70
